Molecular target: Eg5 motor protein (Homo sapiens)
Construct: Eg5 motor domain (amino acids 1-368) was cloned into pET22b; His-tag (C); made in house; host or cells: Escherichia coli BL21 (DE3)
Sequence (P52732 1-368): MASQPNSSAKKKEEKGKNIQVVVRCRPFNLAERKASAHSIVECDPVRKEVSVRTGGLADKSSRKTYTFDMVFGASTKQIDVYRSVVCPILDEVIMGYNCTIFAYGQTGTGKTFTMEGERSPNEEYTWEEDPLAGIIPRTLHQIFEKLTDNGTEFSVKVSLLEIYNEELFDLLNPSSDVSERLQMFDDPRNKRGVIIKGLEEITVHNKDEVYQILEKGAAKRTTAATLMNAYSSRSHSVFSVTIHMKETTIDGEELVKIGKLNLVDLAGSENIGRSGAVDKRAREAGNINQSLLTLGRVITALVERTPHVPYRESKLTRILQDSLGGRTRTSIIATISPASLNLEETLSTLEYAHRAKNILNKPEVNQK
Assay: microtubule-activated Eg5 motor protein ATPase assay (malachite green, OD630)
Format: biochemical
Conditions: compound 30.3 uM
Protocol: Eg5 motor domain (amino acids 1-368) was cloned into pET22b and expressed in Escherichia coli BL21 (DE3) cells. […] Inhibitory activities of the compounds were measured using a microtubule-activated ATPase assay. […] After 10 min the absorbance was measured at 630 nm using a microplate reader (BIO-RAD iMark^TM). […] All conditions were performed in three independent duplicate experiments and averaged data points are shown as mean values ± SD, IC50 values were calculated with SPSS17.0 software. […]
measure.name: OD630 Value Mean

CCOC(=O)c1[nH]c(C2NC(=S)NC(C)=C2C(=O)OC)c(C(=O)OCC)c1C (stereo not shown) [D12]
0.243
CCOc1ccccc1C1NC(=S)NC(C)=C1C(=O)Nc1ccc(Cl)cc1 (stereo not shown) [C9]
0.182
CCOC(=O)c1[nH]c(C2NC(=O)NC(C)=C2C(=O)Nc2ccc(Cl)cc2)c(C(=O)OCC)c1C (stereo not shown) [D7]
0.231
CCOC(=O)c1[nH]c(C2NC(=O)NC(C)=C2C(=O)Nc2ccccc2OC)c(C(=O)OC)c1C (stereo not shown) [D3]
0.182

----------
test system: Caco-2 cell line; test: Cytotoxicity MTS assay, Caco-2 cell line; type: cell-based; conditions: 50μM; second assay; Caco-2 cell line
Each record here notes measured OD490 Mean.
// no unit string in output, number only

Solved entries (count: 4):
CCOC(=O)C1=C(C)NC(=S)NC1c1cccc(O)c1 (stereo not drawn) [Monastrol, monastrol, reference compound]
0.5572
COC(=O)c1[nH]c(C2NC(=S)NC(C)=C2C(=O)c2ccccc2)c(C(=O)OC)c1C (stereo not drawn) [D14]
0.5200
CCOC(=O)c1[nH]c(C2NC(=S)NC(C)=C2C(=O)OC)c(C(=O)OCC)c1C (stereo not drawn) [D12]
0.6141
CCOC(=O)c1[nH]c(C2NC(=O)NC(C)=C2C(=O)Nc2ccc(Cl)cc2)c(C(=O)OCC)c1C (stereo not drawn) [D7]
0.4826

// Input: CCOC(=O)c1[nH]c(C2NC(=O)NC(C)=C2C(=O)Nc2ccccc2OC)c(C(=O)OC)c1C (stereo not drawn) [D3] . Output its OD490 Mean only.
0.7093

Read the entry CCOC(=O)c1c(C2NC(=O)NC(C)=C2C(=O)Nc2ccccc2C)[nH]c(C(=O)OC)c1C (stereo not drawn) [D2] and write its reported OD490 Mean.
0.5350
